- test: Bioavailability in Sprague-Dawley rat plasma at 2 mg/kg, iv
- Format: ADME, organism-based
quantity: bioavailability (%)
// units = %; emit number, no label

Quick one: bioavailability of O=C(CN1CCCC2=C1C(=O)N(C1CC1)C2=O)Nc1ccc(-c2cccnc2)nn1 ? 81

* * *

Below, each of the compounds is paired with its reported solubility thermodynamic value.
- test: Thermodynamic solubility of compound at pH 4
- Type: physicochemical
- assay.setup: buffer, read-out: Therm_solubility
// units = µg/mL; emit number, no label

O=C(CN1CCCC2=C1C(=O)N(C1CC1)C2=O)Nc1ccc(-c2cncc(F)c2)nn1 :: 13.8
CN1C(=O)C2=C(C1=O)N(CC(=O)Nc1ccc(-c3nccs3)cc1)CCC2 :: 1.1
CN1C(=O)C2=C(C1=O)N(CC(=O)Nc1ccc(-c3cncc(F)c3)nn1)CCC2 :: 82
CN1C(=O)C2=C(C1=O)N(CC(=O)Nc1ccc(-c3cccnc3)nn1)CCC2 :: 13.9

Please turn your attention to the following entry.
Quick one: solubility thermodynamic of O=C(CN1CCCC2=C1C(=O)N(C1CC1)C2=O)Nc1ccc(-c2cccnc2)nn1 ? 141
